B1: TPR t1 (parent)
chain: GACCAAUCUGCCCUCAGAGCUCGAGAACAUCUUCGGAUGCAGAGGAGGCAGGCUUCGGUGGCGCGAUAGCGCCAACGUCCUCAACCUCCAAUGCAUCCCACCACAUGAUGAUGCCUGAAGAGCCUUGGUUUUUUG

Variants of: B1
Test: polymerase ribozyme fitness, log enrichment relative to wild type (log ratio); higher = more active; in vitro selection for triplet polymerase activity
Listing: polymerase ribozyme fitness (log ratio) of selected variants
Endpoint label: polymerase ribozyme fitness (log ratio)

mutation="U55C G61A U125A" endpoint_label="polymerase ribozyme fitness (log ratio)" assay_result=-0.857
mutation="G17U A18U G35C C72G G77U A103U U112G" endpoint_label="polymerase ribozyme fitness (log ratio)" assay_result=-6.95
mutation="A46U A105C A119G C124A" endpoint_label="polymerase ribozyme fitness (log ratio)" assay_result=-1.39
mutation="G61A U129C" endpoint_label="polymerase ribozyme fitness (log ratio)" assay_result=0.132
mutation="U59G U96G A111C U131A U133A" endpoint_label="polymerase ribozyme fitness (log ratio)" assay_result=-1.54
mutation="A29G U38G A43U A90C G113U U125C" endpoint_label="polymerase ribozyme fitness (log ratio)" assay_result=-3.96
mutation="G48A G52A" endpoint_label="polymerase ribozyme fitness (log ratio)" assay_result=-0.371
mutation="C28U G120A" endpoint_label="polymerase ribozyme fitness (log ratio)" assay_result=-1.19
mutation="C40U C104A A119G" endpoint_label="polymerase ribozyme fitness (log ratio)" assay_result=-1.84
mutation="U81C C82A" endpoint_label="polymerase ribozyme fitness (log ratio)" assay_result=-1.8
mutation="G10A C85U" endpoint_label="polymerase ribozyme fitness (log ratio)" assay_result=-0.189
mutation="U9A G63U U96G G128A" endpoint_label="polymerase ribozyme fitness (log ratio)" assay_result=-2.96
mutation="C4G G44U U96A" endpoint_label="polymerase ribozyme fitness (log ratio)" assay_result=-4.42
mutation="C15G A29G C88G U129A" endpoint_label="polymerase ribozyme fitness (log ratio)" assay_result=-3.95
mutation="G63U U106C" endpoint_label="polymerase ribozyme fitness (log ratio)" assay_result=-1.92
mutation="C49A G71A C98G A100C" endpoint_label="polymerase ribozyme fitness (log ratio)" assay_result=-7.02
mutation="C12A G44A A46G G48U" endpoint_label="polymerase ribozyme fitness (log ratio)" assay_result=-3.1
mutation="C11U C22A A37G A68G C72A U109A" endpoint_label="polymerase ribozyme fitness (log ratio)" assay_result=-5.84
mutation="C20U G61C C114U" endpoint_label="polymerase ribozyme fitness (log ratio)" assay_result=-1.73
mutation="G17U C34A" endpoint_label="polymerase ribozyme fitness (log ratio)" assay_result=-3.65
mutation="C34A C40U C85A" endpoint_label="polymerase ribozyme fitness (log ratio)" assay_result=-5.11
mutation="A95U U109A U130G" endpoint_label="polymerase ribozyme fitness (log ratio)" assay_result=-6.07
mutation="U33G C104U" endpoint_label="polymerase ribozyme fitness (log ratio)" assay_result=-5.5

Data provenance is the RNAGym collection of RNA variant scans (doi:10.1073/pnas.2313332121).
